src = ChEMBL document CHEMBL4699648

- assayRemarks: Oral bioavailability in Sprague-Dawley rat at 20 mg/kg mesured up to 24 hrs
- Type: ADME, organism-based
- testConditions: in vivo
measuredProperty: bioavailability (%)
Give just the numeric value; % need not be written.

Q: Name the recorded bioavailability for O=C(NCCO)c1cccc2c1CCN2c1cc(Cc2cc(F)cc(C(F)(F)F)c2)ncn1 .
Ans: 76

* * *

- assayRemarks: Drug level in Sprague-Dawley rat brain at 10 mg/kg, iv after 1 hr
- Format: ADME, organism-based
- testConditions: read-out: Drug uptake
measuredProperty: concentration at 1 h (ng/g)
Answer format: numeric, ng/g implied, no suffix.

Q: Recorded concentration at 1 h of O=C(NCCO)c1cccc2c1CCN2c1cc(Cc2cc(F)cc(C(F)(F)F)c2)ncn1 , please.
Ans: 1010
